tested on: Hepatotoxicity; assay: Human drug-induced liver injury (DILI) modelling dataset from Ekins et al
Attribute measured: Hepatotoxicity

>>> result("CCCN(CCC)S(=O)(=O)c1ccc(C(=O)O)cc1 [PROBENECID]")
"DILI negative (test set)"
>>> result("Cc1cc(C(C)(C)C)c(O)c(C(C)(C)C)c1 [BUTYLATED HYDROXYTOLUENE]")
"DILI positive (test set)"
>>> result("O=C1CC2(CCCC2)CC(=O)N1CCCCN1CCN(c2ncccn2)CC1 [BUSPIRONE]")
"DILI negative (test set)"
>>> result("CN1CCN2c3ccccc3Cc3ccccc3C2C1 (stereo not drawn) [MIANSERIN]")
"DILI positive (test set)"
>>> result("Cc1ccc(S(=O)(=O)NC(=O)NN2CCCCCC2)cc1 [TOLAZAMIDE]")
"DILI positive (test set)"
>>> result("CCCCc1nc(Cl)c(CO)n1Cc1ccc(-c2ccccc2-c2nn[nH]n2)cc1 [LOSARTAN]")
"DILI positive (test set)"
>>> result("Cc1onc(-c2c(Cl)cccc2Cl)c1C(=O)N[C@@H]1C(=O)N2[C@@H]1SC(C)(C)[C@@H]2C(=O)[O-].O.[Na+] [DICLOXACILLIN SODIUM]")
"DILI positive (test set)"
>>> result("COc1cccc2c1C(=O)c1c(O)c3c(c(O)c1C2=O)C[C@@](O)(C(=O)CO)C[C@@H]3O[C@H]1C[C@H](N)[C@@H](O)[C@H](C)O1 [EPIRUBICIN]")
"DILI negative (test set)"
>>> result("NC(=O)N1c2ccccc2C=Cc2ccccc21 [CARBAMAZEPINE]")
"DILI positive (test set)"
